test system: HCT-15 colon; experiment: NCI tumour cell line growth inhibition, 48 h; in the data active = GI50 below about 0.43 µM; inactive = the rest
Outcomes: 1 (active), 0 (inactive)

[[record]]
compound = "CC/C(Cc1ccccc1)=C(\\c1ccc(OCCN2CCCC2)cc1)c1ccc(OC(=O)NCc2ccccc2)cc1"
group_label = 0

[[record]]
compound = "C#Cc1cccc(Nc2nc(Cl)nc3cc(NC(=O)CCl)ccc23)c1"
group_label = 0

[[record]]
compound = "N#CC1=C(N)Oc2c(ccc3ccccc23)C1c1cc(=O)oc2ccc(Cl)cc12 (stereo not given)"
group_label = 0

[[record]]
compound = "COc1ccc(C(=O)/C=C/c2cc(-c3cc(OC)c(OC)c(OC)c3)n[nH]2)cc1"
group_label = 0

[[record]]
compound = "COc1ccc(/C=C/c2c(C(=O)/C=C/c3ccc(C(F)(F)F)cc3)c(C)nc3ccccc23)cc1"
group_label = 0

[[record]]
compound = "CN(C)CCCn1c(=O)c2ccccc2c2cnc3[nH]ccc3c21"
group_label = 0

[[record]]
compound = "CCN(CC)CCCC(C)Nc1cc(-c2cccc(OC(F)(F)F)c2)nc2ccc(N3CCCC3)cc12 (stereo not given)"
group_label = 1

[[record]]
compound = "NC(=O)c1ccc(Oc2nccc(-c3c(-c4ccc(F)cc4)ncn3C3CCNCC3)n2)cc1"
group_label = 0

[[record]]
compound = "COC(=O)c1c(-c2cccs2)oc(-c2cccs2)c1C(=O)OC"
group_label = 0

[[record]]
compound = "C=C1C(O)C2CC(C)(CO)C(=O)C2=C(CC(C)C)C12CC2 (stereo not given)"
group_label = 0

[[record]]
compound = "CCCCC#Cc1c(I)n(C)c(=O)[nH]c1=O"
group_label = 0

[[record]]
compound = "COc1cc(OC)cc(C2C3=C(COC3=O)Nc3cc(OC)ccc32)c1 (stereo not given)"
group_label = 1

[[record]]
compound = "O=C(NCCCc1cn[nH]c1)c1ccc(-c2ccncc2)c(C#Cc2ccc(F)cc2)c1"
group_label = 1

[[record]]
compound = "COc1cc(C2C3=C(COC3=O)N(CCO)c3cc4c(cc32)OCCO4)cc(OC)c1OC (stereo not given)"
group_label = 0

[[record]]
compound = "O=C(CN(/C=C/C(=O)C(F)(F)F)c1ccc(Cl)cc1)c1ccc(Cl)c(Cl)c1"
group_label = 0


###

system: NCI-H522 lung; test: NCI tumour cell line growth inhibition, 48 h
The entries below are paired with their reported TGI.
experimental.readout: TGI (µM)

[[record]]
molecule = "Cc1c(C#N)cccc1[C@@H](C)Nc1nnc(C)c2cnc(N3CCOCC3)cc12"
experimental_readout = "TGI"
operator = ">"
reported_result = 100

[[record]]
molecule = "CC(C)c1cccc(C(C)C)c1N1C(=O)C(=O)C(c2nc3ccccc3o2)C(=O)C1=O"
experimental_readout = "TGI"
operator = "="
reported_result = 50.6

[[record]]
molecule = "O=C(Nc1nn[nH]n1)c1nc(-c2ccccc2)cc(=O)[nH]1"
experimental_readout = "TGI"
operator = ">"
reported_result = 100

[[record]]
molecule = "COc1ccc(C2=Nc3ccccc3SC(C)C2)cc1OC (stereo not given)"
experimental_readout = "TGI"
operator = "="
reported_result = 32.1

[[record]]
molecule = "Cn1cc(C2=C(c3c[nH]c4ccccc34)C(=O)NC2=O)c2ccccc21"
experimental_readout = "TGI"
operator = ">"
reported_result = 25

[[record]]
molecule = "CC(C)N(Cc1ccc(CN(C(=O)CCl)C(C)C)cc1)C(=O)CCl"
experimental_readout = "TGI"
operator = "="
reported_result = 0.342

[[record]]
molecule = "CCOC(=O)c1cc(-c2ccc(-c3cc(C(=O)OCC)c(C#N)c(N)c3C#N)cc2)c(C#N)c(N)c1C#N"
experimental_readout = "TGI"
operator = ">"
reported_result = 100

[[record]]
molecule = "Cc1cc(N(CCOS(C)(=O)=O)CCOS(C)(=O)=O)ccc1C(=O)O"
experimental_readout = "TGI"
operator = ">"
reported_result = 100

[[record]]
molecule = "ClCc1ccccc1Cn1cnc2ncnc(Cl)c21"
experimental_readout = "TGI"
operator = "="
reported_result = 7.64

[[record]]
molecule = "CC(=O)OC12C=C(C)C(C(C)C1)C1C(=O)N(CCN3CCCCC3)C(=O)C12 (stereo not given)"
experimental_readout = "TGI"
operator = ">"
reported_result = 50

[[record]]
molecule = "CC(CNC(N)=O)NC(N)=O (stereo not given)"
experimental_readout = "TGI"
operator = ">"
reported_result = 100

[[record]]
molecule = "O=C1CSC(c2ccccc2Cl)N1c1nnc(Cn2cnnc2)o1 (stereo not given)"
experimental_readout = "TGI"
operator = "="
reported_result = 38

[[record]]
molecule = "N/C(=N\\N=C\\c1ncccc1O)NO"
experimental_readout = "TGI"
operator = "="
reported_result = 87.9

[[record]]
molecule = "COc1ccc(/C=C/c2c(C(=O)/C=C/c3ccc(C(F)(F)F)cc3)c(C)nc3ccccc23)cc1"
experimental_readout = "TGI"
operator = "="
reported_result = 5.69

[[record]]
molecule = "COC1=CC(=O)N(C)C(O)C1(C#N)OC1OC(CO)C(O)C(O)C1O (stereo not given)"
experimental_readout = "TGI"
operator = ">"
reported_result = 100

[[record]]
molecule = "CCC(=O)OC1CCn2c1nc1c2C(=O)C(C)=C(NC(C)=O)C1=N (stereo not given)"
experimental_readout = "TGI"
operator = "="
reported_result = 2.79

[[record]]
molecule = "C[C@H](C1CC2(C)OC2(C)C(=O)O1)[C@H]1CC[C@H]2[C@@H]3[C@@H]4O[C@@H]4[C@@]4(O)CC=CC(=O)[C@]4(C)[C@H]3CC[C@]12C (stereo not given in full)"
experimental_readout = "TGI"
operator = ">"
reported_result = 50

[[record]]
molecule = "COC(=O)c1c(-c2cccs2)oc(-c2cccs2)c1C(=O)OC"
experimental_readout = "TGI"
operator = "="
reported_result = 69.7

[[record]]
molecule = "CC1OC(=O)C(O)=C1O (stereo not given)"
experimental_readout = "TGI"
operator = ">"
reported_result = 100

[[record]]
molecule = "Nc1c(S(=O)(=O)O)cc(S(=O)(=O)O)c2ccc(N=Nc3ccc(/C=C/c4ccc(N=Nc5ccc6c(S(=O)(=O)O)cc(S(=O)(=O)O)c(N)c6c5O)cc4S(=O)(=O)O)c(S(=O)(=O)O)c3)c(O)c12"
experimental_readout = "TGI"
operator = ">"
reported_result = 100

